assay-notes: Tmax in Enterococcus faecalis infected Wistar rat at single administration of 1 g, iv
Format: ADME, organism-based
details: in vivo
experimental-endpoint: Tmax (min)
Enter your answer as a number in min; do not include the unit.

Supply recorded Tmax for CN[C@H](CC(C)C)C(=O)N[C@H]1C(=O)N[C@@H](CC(N)=O)C(=O)N[C@H]2C(=O)N[C@H]3C(=O)N[C@H](C(=O)N[C@H](C(=O)O)c4cc(O)cc(O)c4-c4cc3ccc4O)[C@H](O)c3ccc(c(Cl)c3)Oc3cc2cc(c3O[C@@H]2O[C@H](CO)[C@@H](O)[C@H](O)[C@H]2O[C@H]2C[C@](C)(N)[C@H](O)[C@H](C)O2)Oc2ccc(cc2Cl)[C@H]1O [VANCOMYCIN] here. 30
